Measured values drawn from paper PMC9573387 for this set.

Tested on: MDCK (ATCC CCL-34) cells
COND: read-out: CC50 (median cytotoxic concentration); MDCK cells, MTT, concentration causing 50% cell death
ENDPOINT: CC50 (µM)
// return numeric value only (unit: µM, not printed)

### Prompt Endpoint output: CC50 of CC(N)C12CC3CC(CC(C3)C1)C2 (stereo not shown) [Rimantadine, reference compound] . Value?
### Response 340

###

Tested on: A/Puerto Rico/8/34 (H1N1) influenza virus
TEST_NAME: microbe, parasite or virus in culture
Type: cell-based
COND: CC50/IC50
Overview of recorded SI (selectivity index, CC50/IC50 ratio) for various molecules

### Prompt State its SI (selectivity index, CC50/IC50 ratio) on A/Puerto Rico/8/34 (H1N1) influenza virus: O=c1[nH]c(=O)n(Cc2cn([C@@H]3O[C@H](CO)[C@@H](O)[C@H]3O)nn2)c2ccccc12 [Compound 33b]
### Response 3

### Prompt State its SI (selectivity index, CC50/IC50 ratio) on A/Puerto Rico/8/34 (H1N1) influenza virus: CCC(CC)O[C@@H]1C=C(C(=O)O)C[C@H](N)[C@H]1NC(C)=O [Oseltamivir carboxylate, reference compound]
### Response >667

### Prompt State its SI (selectivity index, CC50/IC50 ratio) on A/Puerto Rico/8/34 (H1N1) influenza virus: CC(N)C12CC3CC(CC(C3)C1)C2 (centres unmarked) [Rimantadine, reference compound]
### Response 4

### Prompt State its SI (selectivity index, CC50/IC50 ratio) on A/Puerto Rico/8/34 (H1N1) influenza virus: NC(=O)c1ncn([C@@H]2O[C@H](CO)[C@@H](O)[C@H]2O)n1 [Ribavirin, reference compound]
### Response 3

### Prompt State its SI (selectivity index, CC50/IC50 ratio) on A/Puerto Rico/8/34 (H1N1) influenza virus: O=c1[nH]c(=O)n(CCCCc2cn([C@@H]3O[C@H](COP(=O)(Oc4ccccc4)Oc4ccccc4)[C@@H](O)[C@H]3O)nn2)c2ccccc12 [Compound 14b]
### Response 2

###

Overview of recorded pIC50 for various compounds
Tested on: A/Puerto Rico/8/34 (H1N1) influenza virus
TEST_NAME: microbe, parasite or virus in culture
Assay type: cell-based
COND: Influenza A virus; A/Puerto Rico/8/34 (H1N1), MDCK cells, 48 h; read-out: IC50 (50% inhibition of virus replication)
Entry type: numeric. Quantity: pIC50, the -log10 of concentration in molar units.

>  <COMPOUND>
O=c1[nH]c(=O)n(Cc2cn([C@@H]3O[C@H](COP(=O)(O)O)[C@@H](O)[C@H]3O)nn2)c2ccccc12 [Compound 25b]

>  <EXPERIMENTAL_RESULT>
3.80

$$$$
>  <COMPOUND>
O=c1ccn(CCCCc2cn([C@@H]3O[C@H](COP(=O)(O)O)[C@@H](O)[C@H]3O)nn2)c(=O)[nH]1 [Compound 26a]

>  <EXPERIMENTAL_RESULT>
3.71

$$$$
>  <COMPOUND>
NC(=O)c1ncn([C@@H]2O[C@H](CO)[C@@H](O)[C@H]2O)n1 [Ribavirin, reference compound]

>  <EXPERIMENTAL_RESULT>
4.51

$$$$
>  <COMPOUND>
O=c1ccn(Cc2cn([C@@H]3O[C@H](CO[PH](=O)O)[C@@H](O)[C@H]3O)nn2)c(=O)[nH]1 [Compound 23a]

>  <EXPERIMENTAL_RESULT>
3.69

$$$$

Read the next record carefully.
### Prompt Endpoint output: pIC50 of CCC(CC)O[C@@H]1C=C(C(=O)O)C[C@H](N)[C@H]1NC(C)=O [Oseltamivir carboxylate, reference compound] . Value?
### Response 6.52
